Target: S100P (Homo sapiens, UniProt P25815)
Sequence (P25815 1-95): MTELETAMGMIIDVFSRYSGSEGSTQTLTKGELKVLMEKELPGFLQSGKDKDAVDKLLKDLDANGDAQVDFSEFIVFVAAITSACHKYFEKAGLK
Test: direct fluorescence polarization (FP), S100P
Details: 50 nM labeled foldamer, 20 mM HEPES pH 7.5, 150 mM NaCl, 1 mM CaCl2, 0.5 mM TCEP, 0.01% Tween20, quadratic fit, mean ± SEM, three technical repeats, threshold 1 mM
Property Label: Kd (µM)
Answer with a number only, understood to be in µM.

Task item: Record request: Kd value, item `N=C(N)NCCC[C@@H](CC(=O)N[C@H]1CCCC[C@@H]1C(=O)N[C@H]1CCCC[C@@H]1C(=O)N[C@H](CC(=O)N[C@H]1CCCC[C@@H]1C(=O)NCC(=O)N[C@@H](CCCCNC(=O)c1ccc2c(c1)C1(OC2=O)c2ccc(O)cc2Oc2cc(O)ccc21)C(N)=O)Cc1ccccc1)NC(=O)[C@H]1CCCC[C@@H]1N`
Reply: 190

Task item: Record request: Kd value, item `CC[C@H](C)[C@@H](CC(=O)N[C@H]1CCCC[C@@H]1C(=O)N[C@H]1CCCC[C@@H]1C(=O)N[C@H](CC(=O)N[C@H]1CCCC[C@@H]1C(=O)NCC(=O)N[C@@H](CCCCNC(=O)c1ccc2c(c1)C1(OC2=O)c2ccc(O)cc2Oc2cc(O)ccc21)C(N)=O)CC(C)C)NC(=O)[C@H]1CCCC[C@@H]1N`
Reply: 330
